testSummary: Standard protocol for determination of kcat and KM (continuous spectrophotometric assay, Acetyl CoA hydrolysis at 235 nm)
Type: biochemical
conditionLabel: purified protein; about 23° C.; pH 6.8; 0.2 mM acetyl CoA; glyphosate 0.125 to 10 mM
endpointName: log10 Km (log10 of the value in µM)
Short version: log10 scale, Km, µM.

Known results for molecules:
[[record]]
molecule = "SEQ ID NO: 454: GAT polypeptide (protein, 10_4F2, GAT polypeptide) MLEVKPINAEDTYELRHRILRPNQPIEACMFESDLLRGAFHLGGFYRGKLISIASFHQAEHSELQGQKQYQLRGMATLEGYREQKAGSSLIRHAEEILRKRGADMLWCNARTSASGYYKKLGFSEQGEIFETPPVGPHILMYKRLT"
endpointname = "log10 Km"
recordedresult = 2.30

[[record]]
molecule = "SEQ ID NO: 442: GAT polypeptide (protein, 0_5B8, GAT polypeptide) MIEVKPINAEDTYELRHKILRPNQPIEACMYESDLLRGAFHLGGFYRGKLISIASFHQAEHSDLQGQKQYQLRGMATLEGYRDQKAGSSLIRHAEQILRKRGADLLWCNARTSASGYYKKLGFSEQGEIFDTPPVGPHILMYKRLT"
endpointname = "log10 Km"
recordedresult = 2.43

[[record]]
molecule = "SEQ ID NO: 481: GAT polypeptide (protein, 1_4D6, GAT polypeptide) MLEVKPINAEDTYELRHRILRPNQPIEACMYETDLLRGSFHLGGFYRGQLISIASFHKAEHSDLEGQKQYQLRGMATLEGYREQKAGSTLIRHAEQILRKRGADMLWCNARTSAAGYYKRLGFSEQGEVFETPPVGPHILMYKRLT"
endpointname = "log10 Km"
recordedresult = 3.15

[[record]]
molecule = "SEQ ID NO: 477: GAT polypeptide (protein, 1_3D6, GAT polypeptide) MIEVKPINAEDTYELRHKILRPNQPIEACMYESDLLQGSFHLGGFYRGQLISIASFHQAEHSDLQGQKQYQLRGMATLEGFREQKAGSTLIKHAEEILRKKGADLLWCNARTSAAGYYKKLGFSEHGEIFDTPPAGPHILMYKKLT"
endpointname = "log10 Km"
recordedresult = 3.54

[[record]]
molecule = "SEQ ID NO: 513: GAT polypeptide (protein, GAT2_19H8, GAT polypeptide) MIEVKPINAEDTYEIRHRILRPNQPLEACMYETDLLGGTFHLGGYYRGKLISIASFHQAEHPELEGQKQYQLRGMATLEGYREQKAGSTLIRHAEELLRKKGADLLWCNARTSVSGYYEKLGFSEQGEVCDIPPIGPHILMYKKLT"
endpointname = "log10 Km"
recordedresult = 3.45


Here's the next entry for you.
Lookup result for SEQ ID NO: 491: GAT polypeptide (protein, 3_7F9, GAT polypeptide) MLEVKPINAEDTYELRHRILRPNQPIEACMYESDLLRGAFHLGGYYGGKLISIASFHQAEHSDLQGQKQYQLRGMATLEGYREQKAGSSLIKHAEEILRKRGADLLWCNARTSASGYYKKLGFSEQGEIFETPPVGPHILMYKRIT ; measured log10 Km: 2.46
